- target.or.system: α-glucosidase from Saccharomyces cerevisiae (Saccharomyces cerevisiae, UniProt P53341)
- Construct: purchased Sigma-Aldrich Chemical Company (St. Louis, MO, USA)
- Sequence (P53341 whole entry): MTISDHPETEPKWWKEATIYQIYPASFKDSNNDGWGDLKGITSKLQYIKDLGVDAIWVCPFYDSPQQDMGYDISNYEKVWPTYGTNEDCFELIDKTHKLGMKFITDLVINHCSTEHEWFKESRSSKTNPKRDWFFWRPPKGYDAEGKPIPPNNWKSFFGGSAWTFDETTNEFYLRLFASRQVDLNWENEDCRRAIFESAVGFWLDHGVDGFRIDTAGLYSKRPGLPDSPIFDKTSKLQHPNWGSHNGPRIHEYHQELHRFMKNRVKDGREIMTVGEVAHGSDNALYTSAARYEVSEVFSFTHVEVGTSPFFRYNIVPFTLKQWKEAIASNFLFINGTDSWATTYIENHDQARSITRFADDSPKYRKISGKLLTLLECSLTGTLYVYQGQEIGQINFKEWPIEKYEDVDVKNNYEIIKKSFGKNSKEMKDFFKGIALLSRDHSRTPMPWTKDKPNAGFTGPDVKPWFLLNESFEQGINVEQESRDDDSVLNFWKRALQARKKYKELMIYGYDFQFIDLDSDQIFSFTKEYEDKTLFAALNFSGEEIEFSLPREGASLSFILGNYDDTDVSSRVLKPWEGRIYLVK
- experiment.notes: biochemical
- Type: biochemical
- recorded.conditions: isolated compounds; 2.5 mM p-NPG, pH 6.8, 37 °C, 15 min; mean ± SD, n = 3; read-out: IC50 α-Glucosidase
readout: IC50 (mM)
State just the number; it will be interpreted in mM.

In plain terms, O=C(O)/C=C/c1ccc(O)c(O)c1 [Compound 7, caffeic acid] has a documented IC50 of 5.13

----------
- target.or.system: α-glucosidase from Saccharomyces cerevisiae (Saccharomyces cerevisiae, UniProt P53341)
- Construct: purchased Sigma-Aldrich Chemical Company (St. Louis, MO, USA)
- experiment.notes: biochemical
- Format: biochemical
- recorded.conditions: isolated compounds; read-out: IC50 α-glucosidase activity
Readings of IC50 for the listed compounds
State just the number; it will be interpreted in µM.

compound	target.or.system	IC50 [µM]
CC1OC(OCC2OC(Oc3cc(O)c4c(=O)cc(-c5ccc(O)c(O)c5)oc4c3)C(O)C(O)C2O)C(O)C(O)C1O (centres unmarked) [Compound 4, luteolin-7-rutinoside]	α-glucosidase from Saccharomyces cerevisiae (Saccharomyces cerevisiae, UniProt P53341)	671

--- query ---
With α-glucosidase from Saccharomyces cerevisiae (Saccharomyces cerevisiae, UniProt P53341) as the test system, O=c1cc(-c2ccc(OC3OC(CO)C(O)C(O)C3O)c(O)c2)oc2cc(O)cc(O)c12 (centres unmarked) [Compound 3, luteolin-4′-glucoside] showed IC50 of 598

----------
- System: advanced glycation end-product (AGE) formation in BSA/glucose system
- experiment.notes: Inhibition of AGE formation in BSA-glucose system (fluorescence)
- Assay type: biochemical, bovine
- recorded.conditions: compound 3, unit as printed in running text b17; read-out: IC50 AGE formation in BSA-glucose system
readout: pIC50
Notebook: values listed as pIC50 are -log10 of the concentration (mol/L).

In plain terms, O=c1cc(-c2ccc(OC3OC(CO)C(O)C(O)C3O)c(O)c2)oc2cc(O)cc(O)c12 (stereo not shown) [Compound 3, luteolin-4′-glucoside] has a documented pIC50 of 3.37
